Overview of reported CC50 across a group of compounds:
experiment: in vitro; conditions: Cercopithecus aethiops (monkey)

CCCNC(=O)Nc1ccc(-n2nc3cc(C)c(C)cc3n2)cc1 [4l]; > 100 µM

Given the compound O=C(Nc1ccc(-n2nc3cc(Cl)c(Cl)cc3n2)cc1)c1ccc(Cl)cc1 [2g] , what is its reported CC50?
95 µM

Repeat for the following compound: O=C(Nc1ccc(-n2nc3ccccc3n2)cc1)NC1CCCCC1 [3n]
95 µM

What do you have for Cc1ccc(C(=O)Nc2ccc(-n3nc4cc(C)c(C)cc4n3)cc2)cc1 [4f] ?
> 100 µM

Okay, and COc1cc(C(=O)Nc2ccc(-n3nc4ccccc4n3)cc2)cc(OC)c1OC [3j] ?
> 100 µM

Follow-up item: Nc1ccc(-n2nc3cc(Cl)c(Cl)cc3n2)cc1 [2a]
≥ 100 µM
